Tested on: KRAS-mutant PDC complex spheroid viability
protocolNotes: Anticancer human tumor 186277-243-T-J2-PDC patient-derived colon adenocarcinoma cell line growth inhibition [KRAS2]; active means viability on the fitted dose curve at most 10% of control; inactive means the rest
protocolConditions: second compound 3.16 µM; first compound 0.316 µM
Your response should consist of one outcome taken from 1 (yes) = active, 0 (no) = inactive

Solved cases (3 shown):
compound: CC(C)NCC(C(=O)N1CCN(c2ncnc3c2C(C)CC3O)CC1)c1ccc(Cl)cc1 (centres undefined) + C=CC(=O)N1CCN(c2nc(OCC3CCCN3C)nc3c2CCN(c2cccc4cccc(C)c24)C3)CC1CC#N
className: 1 (yes)

compound: CC1OCC2(CCN(c3cnc(Sc4ccnc(N)c4Cl)c(N)n3)CC2)C1N (centres undefined) + C=CC(=O)N1CCN(c2nc(=O)n(-c3c(C)ccnc3C(C)C)c3nc(-c4c(O)cccc4F)c(F)cc23)C(C)C1
className: 0 (no)

compound: CCN1CCN(Cc2ccc(Nc3ncc(F)c(-c4cc(F)c5nc(C)n(C(C)C)c5c4)n3)nc2)CC1 + COc1cc2nc(C)nc(NC(C)c3cc(N)cc(C(F)(F)F)c3)c2cc1OC1CCOC1
className: 0 (no)

Okay, now this compound:
Asked: For CC(=O)OC12COC1CC(O)C1(C)C(=O)C(O)C3=C(C)C(OC(=O)C(O)C(NC(=O)OC(C)(C)C)c4ccccc4)CC(O)(C(OC(=O)c4ccccc4)C21)C3(C)C (centres undefined) + CNCc1ccccc1-c1csc(C(C)Nc2nc(C)nc3cc(OC)c(OC)cc23)c1 , which call appears in the assay record?
Given back: 1 (yes)

###

System: KRAS-mutant PDC complex spheroid viability
protocolNotes: Anticancer human tumor 186277-243-T-J2-PDC cell line growth inhibition [KRAS2];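 on viability, T/C: viability read after seven days of compound exposure; 100% = DMSO vehicle-treated spheroids so lower means less viable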
protocolConditions: second compound 1 µM; first compound 10 µM; stronger effect = lower value
metricName: viability, T/C

Use these answered entries as a reference point.
compound: CC(C)NCC(C(=O)N1CCN(c2ncnc3c2C(C)CC3O)CC1)c1ccc(Cl)cc1 (stereo not given) + CC1OCC2(CCN(c3cnc(Sc4ccnc(N)c4Cl)c(N)n3)CC2)C1N
result: 4.01%
--
compound: COC(=O)c1ccc2c(C(=Nc3ccc(N(C)C(=O)CN4CCN(C)CC4)cc3)c3ccccc3)c(O)[nH]c2c1 + C=CC(=O)N1CCN(c2nc(=O)n(-c3c(C)ccnc3C(C)C)c3nc(-c4c(O)cccc4F)c(F)cc23)C(C)C1
result: 3.67%
--
compound: O=C(c1cc(Cc2n[nH]c(=O)c3ccccc23)ccc1F)N1CCN(C(=O)C2CC2)CC1 + CNCc1ccccc1-c1csc(C(C)Nc2nc(C)nc3cc(OC)c(OC)cc23)c1
result: 33.8%
--
compound: COC(=O)c1ccc2c(C(=Nc3ccc(N(C)C(=O)CN4CCN(C)CC4)cc3)c3ccccc3)c(O)[nH]c2c1 + CNCc1ccccc1-c1csc(C(C)Nc2nc(C)nc3cc(OC)c(OC)cc23)c1
result: 0.16%

Asked: Can you share its viability, T/C? I mean this compound: CC(C)NCC(C(=O)N1CCN(c2ncnc3c2C(C)CC3O)CC1)c1ccc(Cl)cc1 (stereo not given) + C=CC(=O)N1CCN(c2nc(OCC3CCCN3C)nc3c2CCN(c2cccc4cccc(C)c24)C3)CC1CC#N
Given back: 4.64%

###

Tested on: KRAS-mutant PDC complex spheroid viability
protocolNotes: Anticancer human tumor 186277-243-T-J2-PDC cell line growth inhibition [KRAS2]
protocolConditions: curve of first compound; second compound 10 µM
Listed below: pIC50 values for each entry.
The value called pIC50 is obtained by taking minus log10 of the concentration in mol/L.

Use these answered entries as a reference point.
molecule: CC1(C)CCC(CN2CCN(c3ccc(C(=O)NS(=O)(=O)c4ccc(NCC5CCOCC5)c([N+](=O)[O-])c4)c(Oc4cnc5[nH]ccc5c4)c3)CC2)=C(c2ccc(Cl)cc2)C1 + COc1cc2nc(C)nc(NC(C)c3cc(N)cc(C(F)(F)F)c3)c2cc1OC1CCOC1
systemName: KRAS-mutant PDC complex spheroid viability
pIC50: 6.33

molecule: CC1OCC2(CCN(c3cnc(Sc4ccnc(N)c4Cl)c(N)n3)CC2)C1N (stereo not given) + C=CC(=O)N1CCN(c2nc(=O)n(-c3c(C)ccnc3C(C)C)c3nc(-c4c(O)cccc4F)c(F)cc23)C(C)C1
systemName: KRAS-mutant PDC complex spheroid viability
pIC50: 6.35

Asked: Can you share its pIC50? I mean this molecule: Cn1ncnc1[C@H]1c2n[nH]c(=O)c3cc(F)cc(c23)N[C@@H]1c1ccc(F)cc1 + CC1OCC2(CCN(c3cnc(Sc4ccnc(N)c4Cl)c(N)n3)CC2)C1N
Given back: 8.38

Asked: Can you share its pIC50? I mean this molecule: CCN1CCN(Cc2ccc(Nc3ncc(F)c(-c4cc(F)c5nc(C)n(C(C)C)c5c4)n3)nc2)CC1 + CC1OCC2(CCN(c3cnc(Sc4ccnc(N)c4Cl)c(N)n3)CC2)C1N
Given back: 6.99

###

Test system: KRAS-mutant PDC complex spheroid viability
protocolNotes: Anticancer human tumor 186277-243-T-J2-PDC cell line growth inhibition [KRAS2];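 on viability, T/C: viability read after seven days of compound exposure; 100% = DMSO vehicle-treated spheroids so lower means less viable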
protocolConditions: second compound 1 µM; first compound 0.01 µM; stronger effect = lower value
metricName: viability, T/C

Use these answered entries as a reference point.
compound: CC(=O)Nc1cccc(-n2c(=O)n(C3CC3)c(=O)c3c(Nc4ccc(I)cc4F)n(C)c(=O)c(C)c32)c1 + C=CC(=O)N1CCN(c2nc(=O)n(-c3c(C)ccnc3C(C)C)c3nc(-c4c(O)cccc4F)c(F)cc23)C(C)C1
viability, T/C: 4.82%
--
compound: CN(C)C/C=C/C(=O)Nc1cc2c(Nc3ccc(F)c(Cl)c3)ncnc2cc1O[C@H]1CCOC1 + CC1OCC2(CCN(c3cnc(Sc4ccnc(N)c4Cl)c(N)n3)CC2)C1N
viability, T/C: 99.8%

Asked: Can you share its viability, T/C? I mean this compound: Cn1ncnc1[C@H]1c2n[nH]c(=O)c3cc(F)cc(c23)N[C@@H]1c1ccc(F)cc1 + CNCc1ccccc1-c1csc(C(C)Nc2nc(C)nc3cc(OC)c(OC)cc23)c1
Given back: 86%

Asked: Can you share its viability, T/C? I mean this compound: Cn1ncnc1[C@H]1c2n[nH]c(=O)c3cc(F)cc(c23)N[C@@H]1c1ccc(F)cc1 + C=CC(=O)N1CCN(c2nc(=O)n(-c3c(C)ccnc3C(C)C)c3nc(-c4c(O)cccc4F)c(F)cc23)C(C)C1
Given back: 98.7%

###

Tested on: KRAS-mutant PDC complex spheroid viability
protocolNotes: Anticancer human tumor 186277-243-T-J2-PDC cell line growth inhibition [KRAS2];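 on viability, T/C: viability read after seven days of compound exposure; 100% = DMSO vehicle-treated spheroids so lower means less viable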
protocolConditions: second compound 10 µM; first compound 0.0316 µM; stronger effect = lower value
Source text: Multicellular complex tumor spheroid response to RAS pathway inhibitors in combination with a targeted agents in patient-derived cell lines with oncogenic KRAS variants from multiple cancer types A high-throughput screen of multi-cell type tumor spheroids was designed to identify active combinations of targeted small molecules and KRAS pathway inhibitors. […] Compounds. […] If the clinical Cmax for an agent had not been determined, the highest concentration tested was 10 microM. […]
metricName: viability, T/C (%)
Only the number, expressed in %, is required.

Use these answered entries as a reference point.
compound: O=C(c1cc(Cc2n[nH]c(=O)c3ccccc23)ccc1F)N1CCN(C(=O)C2CC2)CC1 + CC1OCC2(CCN(c3cnc(Sc4ccnc(N)c4Cl)c(N)n3)CC2)C1N
resultNumber: 86.7
--
compound: CC1OCC2(CCN(c3cnc(Sc4ccnc(N)c4Cl)c(N)n3)CC2)C1N (stereo not drawn) + C=CC(=O)N1CCN(c2nc(=O)n(-c3c(C)ccnc3C(C)C)c3nc(-c4c(O)cccc4F)c(F)cc23)C(C)C1
resultNumber: 53.9

Alright, here's another compound for you.
Asked: Can you share its viability, T/C? I mean this compound: CC1COCCN1c1cc(-c2ccnn2C)c2ccnc(-c3ccn[nH]3)c2n1 (stereo not drawn) + C=CC(=O)N1CCN(c2nc(=O)n(-c3c(C)ccnc3C(C)C)c3nc(-c4c(O)cccc4F)c(F)cc23)C(C)C1
Given back: 11.3

###

System: KRAS-mutant PDC complex spheroid viability
protocolNotes: Anticancer human tumor 186277-243-T-J2-PDC cell line growth inhibition [KRAS2]; active = viability on the fitted dose curve at most 10% of control; inactive = the rest
protocolConditions: second compound 0.316 µM; first compound 0.01 µM
Your response should consist of one outcome taken from active, inactive

Solved cases (4 shown):
compound: CC(C)n1nc(-c2ccc3oc(N)nc3c2)c2c(N)ncnc21 + C=CC(=O)N1CCN(c2nc(=O)n(-c3c(C)ccnc3C(C)C)c3nc(-c4c(O)cccc4F)c(F)cc23)C(C)C1
className: inactive
--
compound: Cn1ncnc1[C@H]1c2n[nH]c(=O)c3cc(F)cc(c23)N[C@@H]1c1ccc(F)cc1 + C=CC(=O)N1CCN(c2nc(=O)n(-c3c(C)ccnc3C(C)C)c3nc(-c4c(O)cccc4F)c(F)cc23)C(C)C1
className: inactive
--
compound: CCN1CCN(Cc2ccc(Nc3ncc(F)c(-c4cc(F)c5nc(C)n(C(C)C)c5c4)n3)nc2)CC1 + CNCc1ccccc1-c1csc(C(C)Nc2nc(C)nc3cc(OC)c(OC)cc23)c1
className: inactive
--
compound: CC(=O)Nc1cccc(-n2c(=O)n(C3CC3)c(=O)c3c(Nc4ccc(I)cc4F)n(C)c(=O)c(C)c32)c1 + C=CC(=O)N1CCN(c2nc(=O)n(-c3c(C)ccnc3C(C)C)c3nc(-c4c(O)cccc4F)c(F)cc23)C(C)C1
className: active

Okay, now this compound:
Asked: For CC(C)n1nc(-c2ccc3oc(N)nc3c2)c2c(N)ncnc21 + COc1cc2nc(C)nc(NC(C)c3cc(N)cc(C(F)(F)F)c3)c2cc1OC1CCOC1 , which call appears in the assay record?
Given back: inactive
